- System: UGT enzymes of human liver microsomes
- Construct: percentage of control metabolism, 7-HFC glucuronidation; percentage of control metabolism, 7-HFC glucuronidation
- experimental.details: Inhibition of 7-HFC glucuronidation in human liver microsomes
- Type: biochemical
- protocol.conditions: inhibitor 200 μM; 7-HFC 50 μM, human liver microsomes 100 μg/ml, 15 min
For each record, write down the corresponding % of control metabolism (SD, n = 3), 7-HFC glucuronidation.

Item CCCOC(=O)c1cc(O)c(O)c(O)c1 [Propyl gallate] has what recorded % of control metabolism (SD, n = 3), 7-HFC glucuronidation?
71 (1) %

Item CCCCCCCCCCCCCCCC(=O)OC[C@H](O)[C@H]1OC(=O)C(O)=C1O [Ascorbyl palmitate] has what recorded % of control metabolism (SD, n = 3), 7-HFC glucuronidation?
51 (1) %

Item Cc1ccc(C(C)C)cc1O has what recorded % of control metabolism (SD, n = 3), 7-HFC glucuronidation?
63 (0) %

Item CCCCC/C=C\C/C=C\CCCCCCCC(=O)O has what recorded % of control metabolism (SD, n = 3), 7-HFC glucuronidation?
77 (4) %

Item COc1cc(CNC(=O)CCCCCCC(C)C)ccc1O [Dihydrocapsaicin] has what recorded % of control metabolism (SD, n = 3), 7-HFC glucuronidation?
52 (2) %

Item COc1cc(CO)ccc1O has what recorded % of control metabolism (SD, n = 3), 7-HFC glucuronidation?
67 (3) %

Item CCCCCCCCCCCCCCCC(=O)OC/C=C(C)/C=C/C=C(C)/C=C/C1=C(C)CCCC1(C)C [Retinol palmitate] has what recorded % of control metabolism (SD, n = 3), 7-HFC glucuronidation?
82 (1) %

Item Cc1cc(=O)oc2cc(O)ccc12 [4-Methylumbelliferone, reference compound] has what recorded % of control metabolism (SD, n = 3), 7-HFC glucuronidation?
64 (1) %

Item CCCCCCCCCCCCOC(=O)c1cc(O)c(O)c(O)c1 [Lauryl gallate] has what recorded % of control metabolism (SD, n = 3), 7-HFC glucuronidation?
22 (1) %

Item CC/C(=C(/CC)c1ccc(O)cc1)c1ccc(O)cc1 [Diethylstilbestrol, reference compound] has what recorded % of control metabolism (SD, n = 3), 7-HFC glucuronidation?
1 (0) %
